This section presents compounds with their documented normalized growth values.
test: chemical genetic growth profiling, strain panel (AID 1159580);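 further: tested at 20 µM; growth read once vehicle control cultures reached saturation at 30 °C; 1 = growth at the plate median or of vehicle wells; lower values mean less growth of the strain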; conditions: S. cerevisiae deletion strains, growth OD, locus YPL051W, strain arl3, hits give low values
About 2,000 (36%) of roughly 5,500 compounds were called active. Another 18% or so got no clear call; they are omitted. This is one part of the list.

| compound | normalized growth |
| --- | --- |
| CC(=O)OCC(=O)[C@@]1(O)CCC2C3CCC4=CC(=O)CC[C@]4(C)[C@@]3(F)[C@@H](O)C[C@@]21C (stereo partly specified) | 1.04 |
| Cn1cnc([N+](=O)[O-])c1Sc1ncnc2nc[nH]c12 | 1.04 |
| COc1ccc2c(=O)c(CC(=O)O)coc2c1 | 0.996 |
| O=C1c2ccccc2C(=O)c2c(O)c(O)cc(O)c21 | 0.168 |
| O=C1c2ccc(O)c(O)c2C(=O)c2c(O)ccc(O)c21 | 0.416 |
| CCOc1ccc(Cc2nccc3cc(OCC)c(OCC)cc23)cc1OCC | 0.948 |
